Biological target: T1, human IL-18BP (Homo sapiens, UniProt O95998)
T1 sequence (O95998 31-194): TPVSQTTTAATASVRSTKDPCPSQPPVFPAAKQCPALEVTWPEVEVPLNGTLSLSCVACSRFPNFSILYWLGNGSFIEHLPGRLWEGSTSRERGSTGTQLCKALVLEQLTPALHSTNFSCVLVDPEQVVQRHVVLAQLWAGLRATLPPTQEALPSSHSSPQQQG
Assay: IL-18BP binding AlphaLISA assay (Example 4 / 17B)
Conditions: IL-18 binding protein AlphaLISA
recorded.metric: Kd

Hello, please tell me recorded Kd for this one: C182: IL-18 polypeptide: E6K, V11I, C38A, K53A, T63A, C76A, C127A, V153Y (protein) YFGKLKSKLSIIRNLNDQVLFIDQGNRPLFEDMTDSDARDNAPRTIFIISMYADSQPRGMAVAISVKCEKISTLSAENKIISFKEMNPPDNIKDTKSDIIFFQRSVPGHDNKMQFESSSYEGYFLAAEKERDLFKLILKKEDELGDRSIMFTYQNED > 2800 nM

***
Hello, please tell me recorded Kd for this one: SEQ ID NO: 70: IL-18 polypeptide: N-terminal G, E6K, V11I, C38A, M51G, K53A, T63A, C76A, C127A (protein, N-terminal G, IL-18 polypeptide: N-terminal G, E6K, V11I, C38A, M51G, K53A, T63A, C76A, C127A) GYFGKLKSKLSIIRNLNDQVLFIDQGNRPLFEDMTDSDARDNAPRTIFIISGYADSQPRGMAVAISVKCEKISTLSAENKIISFKEMNPPDNIKDTKSDIIFFQRSVPGHDNKMQFESSSYEGYFLAAEKERDLFKLILKKEDELGDRSIMFTVQNED > 2800 nM
